Measured cell viability by item
- Test system: NOMO1
- testName: cell viability relative to DMSO control; higher = less cytotoxic
- conditionInfo: HPLM + 10% dialyzed FBS; 48 h; 0.569 µM

compound	cell viability
CN1CCN(C2=Nc3cc(Cl)ccc3Nc3ccccc32)CC1	113%
O=C1[C@H](Cc2ccc(O)cc2)N2C(=O)CCN(C(=O)NCc3ccccc3)[C@H]2CN1Cc1cccc2ccccc12	86.3%
O=C(O)C1(Cc2cccc(Nc3nccs3)n2)CCC(Oc2cccc(Cl)c2F)CC1 (stereo not given)	120%
COCC1(CO)C(=O)C2CCN1CC2 (stereo not given)	92.4%
CN(C)C1CCN(C(=O)c2ccc(NC(=O)Nc3nc(N4CCOCC4)nc(N4CCOCC4)n3)cc2)CC1	43.1%
COc1ccc(-c2ccc3ncc4c(c3c2)n(-c2ccc(N3CCNCC3)c(C(F)(F)F)c2)c(=O)n4C)cn1	47.4%
C[S+](=O)([O-])Nc1ccc([N+](=O)[O-])cc1Oc1ccccc1	122%
Cc1nc2cnc3ccc(C#Cc4cccnc4)cc3c2n1-c1ccc(C(C)(C)C#N)cc1	38.7%
CC(C)C1NC(=O)C(NC(=O)C2=C3\N=C\4/C(=C(C)\C(=O)\C(=C4C(=O)NC5C(C)OC(=O)C(C(C)C)N(C)C(=O)CN(C)C(=O)C6CCCN6C(=O)C(NC5=O)C(C)C)N)OC3=C(C)C=C2)C(C)OC(=O)C(C(C)C)N(C)C(=O)CN(C)C(=O)C7CCCN7C1=O (stereo not given)	6.57%
c1ccc(CCCN2CCN(CCOC(c3ccccc3)c3ccccc3)CC2)cc1	92.9%

* * *

cell viability: recorded values
- System: NOMO1
- testName: cell viability relative to DMSO control; higher = less cytotoxic
- conditionInfo: RPMI 5 mM glucose + 10% FBS; 48 h; 0.0211 µM
parameter: cell viability (%)

molecule	number
CC[C@]12CC[C@H]3[C@@H](CCC/4=C/C(=O)CC[C@H]34)[C@@H]1\C=C/[C@@]2(O)C#C	123
OC[C@@H](O)[C@@H](O)[C@H](O)[C@@H](O)CO	111
COC(=O)C[C@](O)(CCCC(C)(C)O)C(=O)O[C@@H]1C(OC)=CC23CCCN2CCc2cc4c(cc2[C@H]13)OCO4 (stereo not given in full)	102
CCOC(=O)c1ccc(OC(=O)CCCCCNC(=N)N)cc1	114
CCN1CCN(CC1)CC(=O)NC2=CC=C(C3=C2C4=C(S3)C=CC=C4)C5=C6O\C(=C/C(=O)C6=CC=C5)N7CCOCC7	120

* * *

- Test system: SEM cells
- testName: cell viability relative to DMSO control; higher = less cytotoxic
- conditionInfo: HPLM + 10% dialyzed FBS; 48 h; 0.19 µM
parameter: cell viability (%)

querySmiles	parameter	unitDescriptor	number
N[S+]([O-])(=O)C1=CC=C(NC/2=C/C(=O)C3=CC=CC=C3C2=O)C=C1	cell viability	%	110
OC[C@H]1O[C@H]([C@H](O)[C@@H]1O)N2\C=C/C(=O)NC2=O	cell viability	%	124
O=C(O)Cn1nnc(-c2cc(N3CCC(Oc4cc(F)ccc4Br)CC3)no2)n1	cell viability	%	101
C[C@]12CC[C@H]3[C@@H](CC[C@H]4NC(=O)\C=C/[C@]34C)[C@@H]1CC[C@@H]2C(=O)NC5=CC(=CC=C5C(F)(F)F)C(F)(F)F	cell viability	%	61.3
CC[C@H](/C=C/[C@@H](C)[C@H]1CC[C@H]2[C@@H]3CC=C4C[C@@H](O)CC[C@]4(C)[C@H]3CC[C@]12C)C(C)C	cell viability	%	108
COCCOc1ccc2c(c1)ncn2-c1ccc2cccc(N3CCC(N)CC3)c2n1	cell viability	%	51.6
CNCCCC12CCC(c3ccccc31)c1ccccc12	cell viability	%	114
